Measured values drawn from ChEMBL document CHEMBL4184247 for this set.

Biological target: UniProtKB P14902
Assay: Inhibition of IDO1 in IFN-gamma stimulated human HeLa cells assessed as inhibition of kynurenine production pre-incubated for 1 hr followed by IFN-gamma addition and measured after 18 hrs
Type: cell-based
pIC50: −log10 of the molar value.
measured.property: pIC50

Some entries whose results are on file:
INSERT INTO measurements (structure_notation, measured_property, observed_value) VALUES
  ('Cc1ccc(NC(=O)N(C)c2cc(-c3ccccc3-c3nnn[nH]3)ccc2N(CC(C)C)CC(C)C)cc1', 'pIC50', 7.01),
  ('Cc1ccc(NC(=O)Nc2cc(-c3ccccc3C(=O)O)ccc2N(CC(C)C)C(C)C)cc1', 'pIC50', 7.38),
  ('Cc1ccc(NC(=O)Nc2cc(-c3ccccc3NS(=O)(=O)C(F)(F)F)ccc2N(CC(C)C)CC(C)C)cc1', 'pIC50', 7.12),
  ('Cc1ccc(N(C)C(=O)Nc2cc(-c3ccccc3-c3nnn[nH]3)ccc2N(CC(C)C)CC(C)C)cc1', 'pIC50', 6.39);

A: Cc1ccc(N2CCN(c3cc(-c4ccccc4-c4nnn[nH]4)ccc3N(CC(C)C)CC(C)C)C2=O)cc1
B: CCCCN(CCCC)c1ccc(-c2ccccc2C(=O)O)cc1NC(=O)Nc1ccc(C)cc1
C: Cc1ccc(NC(=O)Nc2cc(-c3ccccc3C(=O)O)ccc2N(C)C2CCCCC2)cc1
# rank_down: sort by pIC50, max first Form entry: labels listed in requested order.
C, A, B

###

Recorded pIC50 values for a group of compounds are listed next.
Target: Indoleamine 2,3-dioxygenase 1 (Homo sapiens)
Sequence (P14902 whole entry): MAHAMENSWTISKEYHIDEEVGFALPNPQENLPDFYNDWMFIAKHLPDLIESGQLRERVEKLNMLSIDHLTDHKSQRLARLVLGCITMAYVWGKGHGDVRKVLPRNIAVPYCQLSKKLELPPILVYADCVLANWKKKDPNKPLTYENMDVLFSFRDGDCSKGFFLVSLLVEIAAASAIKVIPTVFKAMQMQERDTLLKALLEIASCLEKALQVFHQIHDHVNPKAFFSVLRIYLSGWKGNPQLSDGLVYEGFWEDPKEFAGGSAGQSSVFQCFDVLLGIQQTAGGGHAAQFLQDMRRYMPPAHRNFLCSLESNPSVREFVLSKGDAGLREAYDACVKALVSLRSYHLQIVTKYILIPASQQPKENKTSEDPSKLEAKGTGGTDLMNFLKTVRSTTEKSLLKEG
Assay: Inhibition of IDO1 in IFN-gamma stimulated human HeLa cells assessed as inhibition of kynurenine production pre-incubated for 1 hr followed by IFN-gamma addition and measured after 18 hrs
pIC50: −log10 of the molar value.

INSERT INTO assay_data (structure_notation, measured_property, observed_value) VALUES
  ('COCCN(CCOC)c1ccc(-c2ccccc2C(=O)O)cc1NC(=O)Nc1ccc(C)cc1', 'pIC50', '< 6.00');

Dear colleague, I am looking for the recorded pIC50 of the following compound: "Cc1ccc(NC(=O)Nc2cc(-c3ccccc3C(=O)O)ccc2N(C)c2ccccc2C(C)(C)C)cc1"
< 6.00

Param item: "Cc1ccc(NC(=O)Nc2cc(-c3cccc(C(=O)O)c3)ccc2Oc2ccccc2C(C)(C)C)cc1"
< 6.00

Param item: "Cc1ccc(NC(=O)Nc2cc(-c3ccccc3-c3nnn[nH]3)ccc2N(CC(C)C)CC(C)C)cc1"
8.40

Param item: "Cc1ccc(NC(=O)Nc2cc(-c3ccccc3NS(C)(=O)=O)ccc2N(CC(C)C)CC(C)C)cc1"
< 6.00

Param item: "Cc1ccc(NC(=O)Nc2cc(-c3ccccc3C(=O)O)ccc2N(CC(C)C)CC(C)C)cc1"
7.89

Param item: "CCN(c1ccc(-c2ccccc2C(=O)O)cc1NC(=O)Nc1ccc(C)cc1)C1CCCC1"
7.64

Param item: "Cc1ccc(NC(=O)Nc2cc(-c3ccccc3C(=O)NS(=O)(=O)C(F)(F)F)ccc2N(CC(C)C)CC(C)C)cc1"
< 6.00

Param item: "Cc1ccc(NC(=O)Nc2cc(-c3ccc(C(=O)O)cc3)ccc2Oc2ccccc2C(C)(C)C)cc1"
< 6.00
